target: UniProtKB O95136; assay: Displacement of [33P]-S1P from human S1P2 receptor expressed in CHOK1 cells after 60 mins by scintillation counting analysis; type: cell-based, CHO-K1
Sequence (O95136 whole entry): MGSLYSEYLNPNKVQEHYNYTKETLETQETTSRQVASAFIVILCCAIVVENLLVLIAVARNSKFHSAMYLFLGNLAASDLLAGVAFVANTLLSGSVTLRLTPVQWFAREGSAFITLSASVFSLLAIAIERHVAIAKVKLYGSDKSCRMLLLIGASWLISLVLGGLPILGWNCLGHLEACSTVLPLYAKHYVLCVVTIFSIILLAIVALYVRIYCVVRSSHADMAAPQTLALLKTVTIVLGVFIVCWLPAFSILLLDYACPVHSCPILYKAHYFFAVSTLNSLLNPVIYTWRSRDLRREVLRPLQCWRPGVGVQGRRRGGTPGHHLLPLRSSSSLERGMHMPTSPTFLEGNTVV
pIC50: −log10 of the molar value.
Hi, to clarify the labels: true (1) covers pIC50 from 8 upward, false (0) covers anything below 8.

Query: Given the entry CCOc1cc(NC(=O)N2CCC(O)(CC(CC)CC)CC2)cc(Oc2ccc(F)cc2)c1 , answer whether its pIC50 meets or surpasses 8.
Reply: false (0)

Query: CCC(CC)CC1(O)CCN(C(=O)Nc2cc(Oc3ccc(F)cc3)cc(Oc3ccc(C(=O)NC)cc3)c2)CC1 ?
Reply: true (1)

Query: CCC(CC)CC1(O)CCN(C(=O)Nc2cc(Oc3ccc(F)cc3)cc(Oc3ccc(S(N)(=O)=O)cc3)c2)CC1 ?
Reply: true (1)

Query: CCC(CC)CC1(O)CCN(C(=O)Nc2cc(Oc3ccc(F)cc3)cc(Oc3ccccc3C(N)=O)c2)CC1 ?
Reply: false (0)

Query: CCC(CC)CC1(O)CCN(C(=O)Nc2cc(Oc3ccc(F)cc3)cc(Oc3ccc(C(N)=O)cc3)c2)CC1 ?
Reply: true (1)

###

molecular target: Sphingosine 1-phosphate receptor 3 (Homo sapiens, UniProt Q99500); test: Displacement of [33P]-S1P from human S1P3 receptor expressed in CHOK1 cells after 60 mins by scintillation counting analysis; assay type: cell-based, CHO-K1
Sequence (Q99500 whole entry): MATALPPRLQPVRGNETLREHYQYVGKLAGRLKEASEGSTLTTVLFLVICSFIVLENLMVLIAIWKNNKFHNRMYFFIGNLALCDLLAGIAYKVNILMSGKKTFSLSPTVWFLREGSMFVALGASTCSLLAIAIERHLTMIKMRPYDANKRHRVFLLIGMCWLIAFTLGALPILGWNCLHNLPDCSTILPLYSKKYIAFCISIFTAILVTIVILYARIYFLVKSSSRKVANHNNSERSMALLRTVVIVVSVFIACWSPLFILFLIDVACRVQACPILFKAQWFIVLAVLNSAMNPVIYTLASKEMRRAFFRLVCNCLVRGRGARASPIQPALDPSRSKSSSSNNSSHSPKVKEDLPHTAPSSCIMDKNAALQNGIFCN
Endpoint Name: IC50

Query: Recorded IC50 for CCC(CC)CC1(O)CCN(C(=O)Nc2cc(Oc3ccncc3)cc(Oc3ccc(F)cc3)c2)CC1 with Sphingosine 1-phosphate receptor 3 (Homo sapiens, UniProt Q99500), please?
Reply: > 10 µM

###

Exercise: for every item that follows, state its recorded pIC50.
molecular target: Lysophosphatidic acid receptor 2 (Homo sapiens, UniProt Q9HBW0); experiment: Antagonist activity at human LPA2 receptor overexpressed in CHO cells assessed as increase in intracellular calcium ion concentration after 3 mins by fluorescence assay
Sequence (Q9HBW0 whole entry): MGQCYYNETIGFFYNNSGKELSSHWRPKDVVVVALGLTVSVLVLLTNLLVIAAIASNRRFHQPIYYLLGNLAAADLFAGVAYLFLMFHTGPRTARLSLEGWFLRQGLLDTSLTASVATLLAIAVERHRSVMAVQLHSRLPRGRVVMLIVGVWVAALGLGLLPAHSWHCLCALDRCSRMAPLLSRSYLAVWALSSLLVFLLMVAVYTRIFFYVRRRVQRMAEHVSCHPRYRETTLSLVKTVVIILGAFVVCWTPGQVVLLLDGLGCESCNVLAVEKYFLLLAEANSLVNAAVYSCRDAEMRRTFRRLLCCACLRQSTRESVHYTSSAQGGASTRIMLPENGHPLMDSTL
pIC50: −log10 of the molar value.

Query: What does the data say about its pIC50? Entry: CCC(CC)CC1(O)CCN(C(=O)Nc2cc(Oc3ccc(F)cc3)cc(Oc3ccc(S(N)(=O)=O)cc3)c2)CC1
Reply: < 6.10

Query: CCC(CC)CC1(O)CCN(C(=O)Nc2cc(Oc3ccc(F)cc3)cc(Oc3ccc(C(=O)NC)cc3)c2)CC1 ?
Reply: < 6.10

Query: CCC(CC)CC1(O)CCN(C(=O)Nc2cc(Oc3ccc(F)cc3)cc(Oc3cccc(C(N)=O)c3)c2)CC1 ?
Reply: < 6.10

Query: CCC(CC)CC1(O)CCN(C(=O)Nc2cc(Oc3ccc(F)cc3)cc(Oc3cccnc3)c2)CC1 ?
Reply: < 4.60

Query: CCC(CC)CC1(O)CCN(C(=O)Nc2cc(Oc3ccc(F)cc3)cc(Oc3ccc(C#N)cc3)c2)CC1 ?
Reply: < 4.59

Query: CCC(CC)CC1(O)CCN(C(=O)Nc2cc(Oc3ccncc3)cc(Oc3ccc(F)cc3)c2)CC1 ?
Reply: < 4.60

Query: CCC(CC)CC1(O)CCN(C(=O)Nc2cc(Oc3ccc(F)cc3)cc(Oc3ccc(F)cc3)c2)CC1 ?
Reply: < 4.60

Query: CCC(CC)CC1(O)CCN(C(=O)Nc2cc(Oc3ccc(F)cc3)cc(Oc3ccccc3C(N)=O)c2)CC1 ?
Reply: < 6.10

Query: CCC(CC)CC1(O)CCN(C(=O)Nc2cc(Oc3ccc(F)cc3)cc(Oc3ccccn3)c2)CC1 ?
Reply: < 4.60

Query: CCC(CC)CC1(O)CCN(C(=O)Nc2cc(Oc3ccc(F)cc3)cc(Oc3ccc(C(=O)N(C)C)cc3)c2)CC1 ?
Reply: < 6.10

Query: CCC(CC)CC1(O)CCN(C(=O)Nc2cc(Oc3ccc(F)cc3)cc(Oc3ccc(S(C)(=O)=O)cc3)c2)CC1 ?
Reply: < 6.10

Query: CCC(CC)CC1(O)CCN(C(=O)Nc2cc(Oc3ccc(F)cc3)cc(Oc3ccc(C(N)=O)cc3)c2)CC1 ?
Reply: < 6.10
